experiment: RP, Waters CORTECS UPLC C18, 100 × 2.1 mm, 1.6 µm, 40 °C, 0.4 mL/min, estimated dead time 0.55 min; A: water + 0.1% formic acid, pH 3; B: acetonitrile + 0.1% formic acid, pH 3; gradient (min/%B) 0/5 1.12/5 6.41/99.5 10.01/99.5; conditions: stereoisomer not certain
property: LC retention time (min)

> print(dat)
                                   compound           property  measured
1  Cc1cc(C)c(C2=C(OC(=O)CC(C)(C)C)C3(CCCC3)OC2=O)c(C)c1  LC retention time      6.47
2             CN(C)C(=O)Nc1cccc(C(F)(F)F)c1  LC retention time       4.2
3  CCC(C)(NC(=O)c1cc(Cl)c(C)c(Cl)c1)C(=O)CCl (centres undefined) [Zoxamide]  LC retention time      5.55
4  CC=C(C)C(=O)OC(CC(=O)[O-])C[N+](C)(C)C (centres undefined)  LC retention time      2.43
5  CC(Cc1ccc(C(C)(C)C)cc1)CN1CCCCC1 (centres undefined)  LC retention time      4.27
6  CC(C)=CCCC(C)=CCCC(C)=CCCC=C(C)CCC=C(C)CCC=C(C)C  LC retention time      6.18
7  NC(Cc1cc(I)c(Oc2ccc(O)c(I)c2)c(I)c1)C(=O)O (centres undefined)  LC retention time      3.71
8        COP(=O)(OC)SCn1c(=O)oc2cc(Cl)cnc21  LC retention time      3.91
9                COc1nc(NC(C)C)nc(NC(C)C)n1  LC retention time      3.54
